These data points were gathered from PubChem BioAssay AID1159580.

Let's look at some compounds and their measured normalized growth.
# Protocol: chemical genetic growth profiling, strain panel (AID 1159580);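 note: tested at 20 µM; growth read once vehicle control cultures reached saturation at 30 °C; 1 = growth at the plate median or of vehicle wells; lower values mean less growth of the strain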
# Condition Set: S. cerevisiae deletion strains, growth OD, locus YFR010W, strain ubp6, active compounds read low
The campaign covered roughly 5,500 compounds. About 2,000 (36%) were called active. Inconclusive results (about 18%) are left out. Some of the results follow.
Form rule: numeric answer, no unit written next to it.

Use the examples below as a reference point.
Req: Can you look up the measured normalized growth of O=[N+]([O-])c1cc(O)c(O)c([N+](=O)[O-])c1 for me?
Resp: 1.01

Req: Looking for the measured normalized growth of CC(C)(C)NC[C@@H](O)COc1nsnc1N1CCOCC1 , can you help?
Resp: 1.02

Req: Entry CC(=O)Nc1cc([As](=O)(O)O)ccc1O : reported normalized growth = ?
Resp: 1.03

Next:
Req: Give its normalized growth value. Item: CCOP(=S)(OCC)SCn1c(=O)oc2cc(Cl)ccc21
Resp: 0.979

Req: Given OC[C@@H]1CCCN2CCCC[C@H]12 , state its recorded normalized growth.
Resp: 1.01

Req: Name the reported normalized growth value associated with the compound CC1(C)C(=O)C=C[C@@]2(C)C1=C(O)C(=O)[C@]1(C)C2CC[C@@]2(C)[C@H](c3ccoc3)C[C@H]3O[C@]321 (stereo partly drawn)
Resp: 0.95

Req: // query normalized growth value for entry Nc1ccc([As](=O)(O)O)cc1
Resp: 1

Req: // query normalized growth value for entry O=[N+]([O-])c1cc([As](=O)(O)O)ccc1O
Resp: 0.949

====

# Protocol: chemical genetic growth profiling, strain panel (AID 1159580);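 note: tested at 20 µM; growth read once vehicle control cultures reached saturation at 30 °C; 1 = growth at the plate median or of vehicle wells; lower values mean less growth of the strain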
# Condition Set: S. cerevisiae deletion strains, growth OD, locus YGR252W, strain gcn5, active compounds read low
Out of some 5,500 compounds screened, about 2,000 (36%) were called active. Another 18% or so got no clear call; they are omitted. This is one part of the list.
Measurement Type: normalized growth
Reply: number alone, nothing else.

Examples with their reported normalized growth follow.
Req: Consider the compound shown here: CC1(C)C(C(Cl)Cl)C2(Cl)C(Cl)C(Cl)C1(Cl)C2(Cl)Cl (centres undefined) What is its recorded normalized growth?
Resp: 0.962

Req: // query normalized growth value for entry Cc1c(O)c(O)cc2c1CC=C1[C@@]2(C)CC[C@@]2(C)C3C[C@](C)(C(=O)O)CC[C@]3(C)CC[C@]12C (some centres undefined)
Resp: 0.873

Req: Dear colleague, I am looking for the recorded normalized growth of the following compound: COC(=O)[C@]1(C)CC[C@]2(C)CC[C@]3(C)C4=CCc5c(cc(O)c(O)c5C)[C@]4(C)CC[C@@]3(C)C2C1 (some centres undefined)
Resp: 1.09

Others:
Req: Recorded normalized growth of CC(=O)OCC1(C)CCC2(C)CCC3(C)C4=CCc5c(cc(OC(C)=O)c(OC(C)=O)c5C)C4(C)CCC3(C)C2C1 (centres undefined) , please.
Resp: 0.992

====

# Protocol: chemical genetic growth profiling, strain panel (AID 1159580);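 note: tested at 20 µM; growth read once vehicle control cultures reached saturation at 30 °C; 1 = growth at the plate median or of vehicle wells; lower values mean less growth of the strain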
# Condition Set: S. cerevisiae deletion strains, growth OD, locus YHR087W, strain rtc3, active compounds read low
Among all 5,500 compounds or so, about 2,000 (36%) were called active. Not shown: some 18% with an inconclusive outcome. The list shows a part of the results.
Measurement Type: normalized growth
Format: numeric value only, no unit, no commentary.

Req: What measured normalized growth goes with CC(C)(C)NS(=O)(=O)NC(C)(C)C ?
Resp: 0.964

Req: Entry under review: CN1CCCC12NCCc1c2[nH]c2ccccc12 (stereo not drawn) . Reported normalized growth?
Resp: 0.986

Req: For the compound O=C1OC2COC(=O)C2C=C1NC(=O)c1ccc(Cl)cc1 (stereo not drawn) , what normalized growth is on record?
Resp: 0.225

***
Req: GET /values?readout=normalized growth&item= c1ccc2c(c1)CCc1c-2[nH]c2ccccc12
Resp: 0.748

Req: Query: normalized growth; subject: CN(/N=C\c1ccccc1)c1ncc(C(F)(F)F)cc1Cl
Resp: 0.905

Req: Entry O=S(=O)(N/N=C\c1ccc(Cl)cc1)c1ccc(-c2ccccn2)s1 : reported normalized growth = ?
Resp: 0.998

Req: Fill blank: measured normalized growth of the compound O=C(N/N=C\C=C\c1ccccc1)c1ccccc1-n1cccc1 is ____.
Resp: 0.93

Req: I am curious: what normalized growth value has been reported for CCn1nc(C)c(Br)c1-c1nc(-c2ccc(C(F)(F)F)cc2)no1 ?
Resp: 1

Req: Given the entry Clc1cc(Cl)c(Cl)c(-n2cccc2)c1Cl , report its measured normalized growth.
Resp: 0.8

Req: I'd like to know its normalized growth. The compound in question is Cc1onc(NC(=O)NC(=O)c2c(F)cccc2Cl)c1Br
Resp: 0.971

Req: Request the reported normalized growth associated with NC(=S)N/N=C\c1ccccc1
Resp: 1.06
